Hey, just so you know, these numbers are from ChEMBL document CHEMBL4732065.

- Experimental Target: Cytochrome P450 1B1 (Homo sapiens, UniProt Q16678)
- Sequence (Q16678 whole entry): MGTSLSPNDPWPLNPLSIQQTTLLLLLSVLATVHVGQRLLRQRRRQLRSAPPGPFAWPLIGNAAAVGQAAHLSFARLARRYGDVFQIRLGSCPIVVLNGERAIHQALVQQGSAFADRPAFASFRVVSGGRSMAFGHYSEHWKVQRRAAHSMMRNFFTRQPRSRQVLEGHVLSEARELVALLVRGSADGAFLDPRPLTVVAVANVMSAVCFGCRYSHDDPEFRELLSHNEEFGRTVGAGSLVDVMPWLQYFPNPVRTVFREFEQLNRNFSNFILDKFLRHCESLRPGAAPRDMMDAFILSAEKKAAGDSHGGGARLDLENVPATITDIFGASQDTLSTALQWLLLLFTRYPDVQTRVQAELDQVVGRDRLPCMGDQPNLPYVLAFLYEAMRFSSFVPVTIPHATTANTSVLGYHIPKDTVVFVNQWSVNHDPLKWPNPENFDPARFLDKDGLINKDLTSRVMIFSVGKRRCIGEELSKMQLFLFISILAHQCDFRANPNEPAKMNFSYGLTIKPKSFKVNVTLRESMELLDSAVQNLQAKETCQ
- Procedure Text: Inhibition of recombinant human CYP1B1 using 7-ethoxyresorufin as substrate after 35 mins in presence of NADP+ by EROD assay
Each entry below carries its recorded pIC50.
Expect pIC50 as a plain number equal to -log10 of the molar concentration.

Query Smiles	Observed
COc1ccc(OC)c2c1c(OC)cc1c(=O)cc(-c3ccc4[nH]cnc4c3)oc12	7.81

Summary for this compound, COc1ccc(OC)c2c1c(OC)cc1c(=O)cc(-c3cncc(F)c3)oc12 : pIC50 is 9.01

For reference, reported pIC50 for COc1ccc(OC)c2c1c(OC)cc1c(=O)cc(-c3cccc(N)n3)oc12 stands at 8.19

Entry COc1ccc(OC)c2c1c(OC)cc1c(=O)cc(-c3ccc(N)cn3)oc12 — recorded pIC50 = 8.22

Measured pIC50 of COc1ccc(OC)c2c1c(OC)cc1c(=O)cc(-c3cccc(Cl)n3)oc12 : 9.52

Note to self: pIC50 recorded for COc1ccc(OC)c2c1c(OC)cc1c(=O)cc(-c3cscn3)oc12 was 8.59

Given item COc1ccc(OC)c2c1c(OC)cc1c(=O)cc(-c3ccc(Br)cn3)oc12 , the value recorded as its pIC50 is 8.89

Reported pIC50 for COc1ccc(OC)c2c1c(OC)cc1c(=O)cc(-c3cccnc3Br)oc12 was 7.19

Recorded pIC50 (compound COc1ccc(OC)c2c1c(OC)cc1c(=O)cc(-c3ccncc3)oc12 ): 8.92

====

- Experimental Target: Cytochrome P450 1A2 (Homo sapiens, UniProt P05177)
- Sequence (P05177 whole entry): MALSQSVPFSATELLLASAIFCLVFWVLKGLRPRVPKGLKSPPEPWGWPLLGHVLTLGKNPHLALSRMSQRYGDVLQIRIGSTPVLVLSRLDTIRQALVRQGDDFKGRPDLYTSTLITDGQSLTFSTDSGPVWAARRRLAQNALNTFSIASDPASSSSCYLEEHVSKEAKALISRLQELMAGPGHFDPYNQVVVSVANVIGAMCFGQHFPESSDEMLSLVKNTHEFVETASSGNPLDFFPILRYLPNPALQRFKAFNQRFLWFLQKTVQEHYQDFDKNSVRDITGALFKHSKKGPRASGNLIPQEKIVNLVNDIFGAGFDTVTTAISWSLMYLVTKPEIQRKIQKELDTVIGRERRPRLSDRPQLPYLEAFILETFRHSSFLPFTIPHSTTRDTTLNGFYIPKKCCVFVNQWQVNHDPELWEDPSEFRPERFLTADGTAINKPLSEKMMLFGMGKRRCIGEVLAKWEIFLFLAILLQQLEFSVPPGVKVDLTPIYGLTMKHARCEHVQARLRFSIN
- Procedure Text: Inhibition of recombinant human CYP1A2 using 7-ethoxyresorufin as substrate after 50 mins in presence of NADP+ by EROD assay
Readout Kind: IC50 (nM)
Field: numeric (nM). Do not append units.

Measured IC50 (Cytochrome P450 1A2 (Homo sapiens, UniProt P05177)), entry COc1ccc(OC)c2c1c(OC)cc1c(=O)cc(-c3cccnc3Br)oc12 : 966

====

- Organism: Homo sapiens
- Procedure Text: Selectivity index, ratio of IC50 for recombinant human CYP1A1 to IC50 for recombinant human CYP1B1
Categorize each record by its Ratio IC50 using label 0 (below 3), label 1 (3 to below 10), label 2 (10 or more)

Worked examples follow.
Query Smiles	Discrete Label
COc1ccc(OC)c2c1c(OC)cc1c(=O)cc(-c3ccc4[nH]cnc4c3)oc12	label 0
COc1ccc(OC)c2c1c(OC)cc1c(=O)cc(-c3cccc(N4CCOCC4)c3)oc12	label 1
COc1ccc(OC)c2c1c(OC)cc1c(=O)cc(-c3ccncc3N)oc12	label 0
COc1ccc(OC)c2c1c(OC)cc1c(=O)cc(-c3cccnc3)oc12	label 1
COc1ccc(OC)c2c1c(OC)cc1c(=O)cc(-c3cncc(O)c3)oc12	label 1

Query: Where would COc1ccc(OC)c2c1c(OC)cc1c(=O)cc(-c3ccc4ccccc4n3)oc12 land among the classes by reported Ratio IC50?
Result: label 2

Query: Lab log: COc1ccc(OC)c2c1c(OC)cc1c(=O)cc(-c3cc(Cl)ccn3)oc12 — assign Ratio IC50 category
Result: label 2

Query: Place this compound in its band: COc1ccc(OC)c2c1c(OC)cc1c(=O)cc(-c3ccnc(F)c3)oc12
Result: label 2

Query: Which category does the recorded Ratio IC50 put COc1ccc(OC)c2c1c(OC)cc1c(=O)cc(-c3cncc(C(=O)O)c3)oc12 in?
Result: label 0

Query: Exercise: read the entry COc1ccc(OC)c2c1c(OC)cc1c(=O)cc(-c3cccc(O)n3)oc12 and state which class it falls under.
Result: label 2

Query: Entry COc1ccc(OC)c2c1c(OC)cc1c(=O)cc(-c3ccc(Br)cn3)oc12 belongs to which category?
Result: label 2

Query: Given COc1ccc(OC)c2c1c(OC)cc1c(=O)cc(-c3ccc4ncccc4c3)oc12 , name the class its Ratio IC50 places it in.
Result: label 2
